Tested on: SK-MEL-5 melanoma
procedure_details: NCI-60 one-dose screen, 48 h
measurement_setup: 10 µM unless noted
Compounds without any hit were thinned out: in the full panel of roughly 83,000, 20% have a hit. The source made the active and inactive calls. The calls were made as follows: active = growth percent below 10; inactive = the rest.
Pick one: active, inactive

[[record]]
compound = "COc1ccc(C(=NNS(=O)(=O)c2ccc(C)cc2)c2ccccc2)cc1OC"
class_label = "inactive"


## Input Tell me the assay call for Cc1ccc(NC2=C(Cl)C(=O)c3nc(C)ccc3C2=O)c(C)c1 please.
## Output active

## Input Tell me the assay call for Cc1ccc2c(n1)C(=O)C(Cl)=C(Nc1cc(C(F)(F)F)cc(C(F)(F)F)c1)C2=O please.
## Output inactive

## Input Tell me the assay call for Cc1[nH]c(C(=O)Nc2ccccc2OCc2cccc(C(=O)NC3CCCNC3)c2)c(Cl)c1Cl (stereo not given) please.
## Output active

## Input Tell me the assay call for C=C1CCc2nc(SCC(=O)O)ccc2N1 please.
## Output inactive

## Input Tell me the assay call for CC(=O)OC[C@]12CC[C@@H](C(=O)/C=C/c3cccnc3)[C@@H]1[C@H]1CC[C@@H]3[C@@]4(C)CC[C@H](OC(C)=O)C(C)(C)[C@@H]4CC[C@@]3(C)[C@]1(C)CC2 please.
## Output active

## Input Tell me the assay call for CCN(CC)c1ccc(/C=N/NC(=O)c2ccc(NS(C)(=O)=O)cc2)cc1 please.
## Output active

## Input Tell me the assay call for COc1cc2oc(-c3cccc(NC(=O)[C@@H](N)C(C)C)c3)cc(=O)c2c(OC)c1OC please.
## Output inactive

## Input Tell me the assay call for C/C(CC1(O)C(=O)Nc2ccccc21)=N\O (stereo not given) please.
## Output inactive

## Input Tell me the assay call for COc1cc2cc(Oc3ccc(NC(=O)Nc4ccc(F)c(C(F)(F)F)c4)cc3)c(C)nc2cc1OCCN(C)C please.
## Output inactive

## Input Tell me the assay call for Cn1cc(-c2cc3ncnc(Nc4ccc(CC(=O)Nc5nc(C(C)(C)C)cs5)cc4)c3s2)cn1 please.
## Output inactive

## Input Tell me the assay call for CC(=O)/C(N=Nc1ccc2oc(=O)ccc2c1)=C(\C)O please.
## Output active

## Input Tell me the assay call for Nc1nc(=O)n([C@H]2C[C@H](O)[C@@H](CO)O2)cc1C=O please.
## Output inactive

## Input Tell me the assay call for COc1ccc2c(c1)C=CC1(O2)Oc2ccc(OC)cc2C=C1C (stereo not given) please.
## Output inactive

## Input Tell me the assay call for COc1ccc2c(c1)c(-c1nc(N)nnc1-c1c[nH]c3ccccc13)cn2C please.
## Output inactive

## Input Tell me the assay call for CNCCN(C)c1ccc(Nc2cc(NC3CC3)n3ncc(C#N)c3n2)cc1NC(C)=O please.
## Output active

## Input Tell me the assay call for Cc1cc(NS(=O)(=O)c2ccc(NC(=O)CSc3nc4ccccc4c(=O)n3-c3ccccc3)cc2)no1 please.
## Output inactive

## Input Tell me the assay call for Cc1ccc2c(n1)C(=O)C(Cl)=C(Nc1ccc(C)c(C)c1)C2=O please.
## Output active

## Input Tell me the assay call for CC(C)Sc1nc(-c2ccccc2)c(C#N)c(N2CCOCC2)n1 please.
## Output inactive

## Input Tell me the assay call for CN1CCN(CCCCCC(=O)Nc2nc(-c3cccc(NS(=O)(=O)c4cccc5c(N(C)C)cccc45)c3)cs2)CC1 please.
## Output inactive

Data provenance is PubChem BioAssay (NCI).
